Tested on: SF-268
Test: NCI tumour cell line growth inhibition, 48 h
Active and inactive are the calls of the source. No stated cut-off is given here; in the data, active = GI50 up to about 1.1 µM and inactive = higher.
observable: GI50

Sample records with GI50:
CNC(=O)OC(C)CN1c2ccccc2Sc2ccccc21 (stereo not given): > 100 µM (inactive)
CCSC1SC(c2ccccc2)(c2ccccc2)c2ccccc21 (stereo not given): 93.1 µM (inactive)
CSc1cc(Br)ccc1-n1c(C(=O)c2ccccc2)c(SC)n(-c2ccccc2)c1=O: > 100 µM (inactive)
CCOP(=O)(OCC)/C(C#N)=C/c1cnc(-c2ccccc2)[nH]1: > 100 µM (inactive)
CCN(CC)CCNC(=O)c1ccc([N+](=O)[O-])cc1OC: > 100 µM (inactive)

Lookup result for `Cc1ccc(NC(=O)C(=O)CC(=O)c2c(C)[n+]([O-])c3ccccc3[n+]2[O-])cc1C` ; measured GI50: > 100 µM (inactive)

According to the records, this compound ClC(Cl)(Cl)C1CCOC1n1nnc2ccccc21 (stereo not given) displays GI50 of > 100 µM (inactive)

For `C1=N\c2ccc(cc2)-c2ccc(cc2)/N=C\c2ccccc2OCc2cccc(n2)COc2ccccc2/1` the compound record lists GI50 as 20.6 µM (inactive)

# compound `Cc1ccc(C(=O)c2nnc(C(=O)c3ccc(C)cc3)nn2)cc1` ; its GI50 = 21 µM (inactive)

For record `Cc1ccc(NC(=S)N/N=C(/c2ccccc2)c2ccccn2)cc1` the listed GI50 is < 0.0233 µM (active)

// recorded GI50 for COC(=O)[C@@H]1CS(=O)(=O)C(C(C)C)N1C(C)=O (stereo not given in full) : > 100 µM (inactive)

The compound identified as `O=[N+]([O-])c1ccc([I+]c2ccccc2)cc1` registered its GI50 at 6.61 µM (inactive)

compound `CCOC(=O)C1C(c2ccccc2)=C(c2ccccc2)C(c2ccccc2)=C1c1ccccc1` , GI50 observed: 43 µM (inactive)

Just so you know, measured GI50 for CCN(CC)CCCCC1CCN(CC(=O)N2c3cc(Cl)ccc3NC(=O)CC2C)CC1 (stereo not given) came out at > 100 µM (inactive)

Recorded result, CCN(CC)CCCC(C)NC(=O)c1ccc2c(c1)C(=O)c1ccccc1C2=O (stereo not given) , GI50: 23.6 µM (inactive)

Value of GI50 reported for the compound `CN(C)c1ccc(/C=C/c2ccnc3ccccc23)cc1` is > 100 µM (inactive)
